System: LOC_OS01G67340-cb003
Assay: thermal shift delta Tm vs DMSO control; higher = stronger stabilization (binding);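 also: purified Escherichia coli-expressed rice kinase domain construct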
Settings: 12.5 µM; protein concentration 2 µM
Quantity Measured: thermal shift delta Tm (°C)
Dear colleague, please return just the value in °C, with no unit written.

# count of solved cases: 8
Compound	thermal shift delta Tm (°C)
COc1cc2c(c(OC)c1OC)-c1c(cc3c(c1OC)OCO3)CC(C)C(C)C2 (centres undefined) [Schisandrin B (Sch B)]	-0.14
Cc1cc(CN2CCN(c3c(Br)cnc4nc(-c5ccc(N6CCN(C)CC6)cc5)[nH]c34)CC2)no1	1.36
OCCn1cc(-c2cnc3nnn(Cc4ccc5ncccc5c4)c3n2)cn1	-0.64
Clc1ccc(C2(c3ccc(-c4cn[nH]c4)cc3)CCNCC2)cc1	-0.1
COc1cc2ncnc(Nc3ccc(F)c(Cl)c3)c2cc1OCCCN1CCOCC1 [Gefitinib (ZD1839)]	-0.59
O=c1c(O)c(-c2ccc(O)c(O)c2)oc2cc(O)cc(O)c12 [Quercetin]	5.98
CC(C)(C)c1nc(-c2cccc(NS(=O)(=O)c3c(F)cccc3F)c2F)c(-c2ccnc(N)n2)s1	1.21
NC(=O)c1ccc(N(C(N)=O)c2c(F)cccc2F)nc1-c1ccc(F)cc1F	-0.08

Ask: Form entry - test system: LOC_OS01G67340-cb003; read-out: thermal shift delta Tm; compound: CCCCCCCCCCCCCCCCn1cc[n+](Cc2ccccc2)c1C
Reply: -1.74

Ask: How about this compound: CCn1c(-c2nonc2N)nc2c(C#CC(C)(C)O)ncc(OC[C@H]3CCCNC3)c21
Reply: -0.43

* * *

System: LOC_OS02G08530-cb003
Experiment: thermal shift delta Tm vs DMSO control; higher = stronger stabilization (binding)
Settings: 12.5 µM; protein concentration 2 µM
Quantity Measured: thermal shift delta Tm
Write your answer as a measured quantity: the number, then the unit.

Ask: thermal shift delta Tm lookup needed for Cc1nc(-c2cn3c(n2)-c2ccc(-c4cnn(C(C)(C)C(N)=O)c4)cc2OCC3)n(C(C)C)n1 , thanks.
Reply: 0.84 °C

Ask: // repeat for Cn1sc(=O)n(Cc2ccccc2)c1=O and report
Reply: -1.23 °C

* * *

Tested on: LOC_OS01G13800-cb001
Assay: thermal shift delta Tm vs DMSO control; higher = stronger stabilization (binding)
Conditions: 12.5 µM; protein concentration 2 µM
Entries and their measured thermal shift delta Tm follow.

Known results for compounds:
> print(dat)
                                   compound  measured
1  Cn1c(=O)c(Oc2ccc(F)cc2F)cc2cnc(NC(CCO)CCO)nc21   0.21 °C
2    COc1ccc(Cl)cc1NC(=O)Nc1cc(C)nc2ccccc12   0.68 °C
3  C#Cc1cccc(Nc2ncnc3cc(OC)c(OCCCCCCC(=O)NO)cc23)c1   0.44 °C
4  O=C(Nc1cccc(C(F)(F)F)c1)c1cccc2cc(Oc3cc(CO)ncn3)ccc12   0.56 °C
5  C=CC(=O)Nc1cccc(Oc2nc(Nc3ccc(N4CCN(C)CC4)cc3)ncc2Cl)c1   0.23 °C

Ask: // returns reported thermal shift delta Tm for input CCn1c(=O)c(-c2ccc(-c3cncs3)cc2Cl)cc2cnc(Nc3ccc(N4CCN(C)CC4)cc3)nc21
Reply: 0.34 °C

Ask: Check N#CC(=C(/N)Sc1ccccc1N)/C(C#N)=C(\N)Sc1ccccc1N too.
Reply: 0.46 °C

Ask: Now the same for NC(=O)c1cnc(N[C@@H]2CCCC[C@@H]2N)nc1Nc1cccc(-n2nccn2)c1
Reply: -0.14 °C

Ask: Param item: COc1cc2c(Oc3ccc4[nH]c(C)cc4c3F)ncnc2cc1OCCCN1CCCC1 [Cediranib (AZD2171)]
Reply: 0.33 °C

* * *

Tested on: LOC_OS01G60330-cb001
Assay: thermal shift delta Tm vs DMSO control; higher = stronger stabilization (binding)
Conditions: 12.5 µM; protein concentration 2 µM
Quantity Measured: thermal shift delta Tm
Quick note: number first, unit second.

> print(dat)
                                   molecule  measured
1  COc1ccc(CNC(=O)Nc2ncc([N+](=O)[O-])s2)cc1   0.81 °C
2  CN1CCN(C2CCN(C(=O)Nc3cc(Oc4ccc(NC(=O)C5(C(=O)Nc6ccc(F)cc6)CC5)c(F)c4)ccn3)CC2)CC1 [Golvatinib (E7050)]    0.6 °C
3  c1cn2cc(-c3ccc4cn[nH]c4c3)nc(Nc3ccc(N4CCOCC4)cc3)c2n1   7.21 °C

Okay, next one:
Ask: What thermal shift delta Tm value was documented for this molecule, O=C(NC[C@H](O)CO)c1ccncc1Nc1ccc(I)cc1F ?
Reply: 0.48 °C

* * *

Property: thermal shift delta Tm; scope: individual compounds
System: LOC_OS02G54510-cb004
Assay: thermal shift delta Tm vs DMSO control; higher = stronger stabilization (binding)
Details: 12.5 µM; protein concentration 2 µM
Dear colleague, please return just the value in °C, with no unit written.

> print(dat)
                                   compound  measured
1  NC(=O)c1ncn([C@@H]2O[C@H](CO)[C@@H](O)[C@H]2O)c1N [AICAR (Acadesine)]      0.42
2  CCN1CCN(Cc2ccc(-c3cc4c(N[C@H](C)c5ccccc5)ncnc4[nH]3)cc2)CC1      0.94
3  COC(=O)Nc1ccc(-c2nc(N3CCOCC3)c3cnn(C4CCN(C(=O)OC)CC4)c3n2)cc1     -0.07
4  FC(F)(F)c1ccc(/C=C/c2nc(COc3ccc(CCCCn4ccnn4)cc3)co2)cc1 [Mubritinib (TAK 165)]       0.1
5  O=C(NOC[C@H](O)CO)c1ccc(F)c(F)c1Nc1ccc(I)cc1F      0.16

Ask: Requested read-out: thermal shift delta Tm. Entry: N[C@@H]1CCCN(c2c(/C=C3\SC(=O)NC3=O)cccc2-c2ccccc2)C1
Reply: -0.11

Ask: Next compound: O=C1NC(=O)C(c2cnc3ccccn23)=C1c1cn2c3c(cc(F)cc13)CN(C(=O)N1CCCCC1)CC2
Reply: 0

Ask: And CS(=O)(=O)CCNCc1ccc(-c2ccc3ncnc(Nc4ccc(OCc5cccc(F)c5)c(Cl)c4)c3c2)o1 ?
Reply: 0.18

* * *

thermal shift delta Tm for assorted molecules
System: LOC_OS01G63280-cb003
Assay: thermal shift delta Tm vs DMSO control; higher = stronger stabilization (binding)
Conditions: 12.5 µM; protein concentration 2 µM
Field: numeric (°C). Do not append units.

> print(dat)
                                   molecule       quantity.measured  measured
1  CCCNC(=O)c1cn2ncnc(Nc3cc(C(=O)NC4CC4)ccc3C)c2c1C  thermal shift delta Tm      0.33

Ask: # thermal shift delta Tm lookup, item CC(=O)Nc1nc(C)c(-c2ccc(Cl)c(S(=O)(=O)NCCO)c2)s1
Reply: 0.53

Ask: Please do the same for Nc1[nH]nc2nnc(-c3c(-c4ccccc4)nn4ccccc34)cc12 as well.
Reply: 0.4

Ask: Quick one: N#CCNC(=O)c1ccc(-c2ccnc(Nc3ccc(N4CCOCC4)cc3)n2)cc1 [Momelotinib (CYT387)]
Reply: 0.32

Ask: Record: Cc1c(CN2CCN(C(=O)[C@H](C)O)CC2)sc2c(N3CCOCC3)nc(-c3cnc(N)nc3)nc12 [Apitolisib (GDC-0980, RG7422)]
Reply: 0.4

* * *

Tested on: LOC_OS02G14120-cb001
Test: thermal shift delta Tm vs DMSO control; higher = stronger stabilization (binding)
Details: 12.5 µM; protein concentration 2 µM
Categorize each record by its thermal shift delta Tm using low range: < 0.6 °C; mid range: ≥ 0.6 °C and < 3 °C; high range: ≥ 3 °C

# example entries with known answers
> print(dat)
                                   molecule  class.name
1  CN1CCN(Cc2ccc(-c3cnc4[nH]cc(-c5ccc6[nH]ccc6c5)c4c3)cc2)CC1  high range
2  CN1CCN(c2cccc(Nc3nc4c(-c5ccc(S(C)(=O)=O)cc5)cccn4n3)c2)CC1  high range
3  OC1CCC(Nc2ncc3nc(Nc4c(F)cc(F)cc4F)n([C@H]4CCOC4)c3n2)CC1 (stereo not given in full) [Tanzisertib(CC-930)]   mid range
4  CCOc1ccn(-c2ccc(F)cc2)c(=O)c1C(=O)Nc1ccc(Oc2ccnc(N)c2Cl)c(F)c1  high range
5        COc1cc2ccc(=O)oc2cc1O [Scopoletin]   mid range
6  O=C(Nc1cc(C(F)(F)F)cc(C(F)(F)F)c1)c1cc(Cl)ccc1O   low range

Ask: Any idea which band CCn1c(N)c(C(=O)NC)c(=O)c2ccc(C#CC(C)(O)COC)nc21 (stereo not given) is in?
Reply: mid range

Ask: Consider next the molecule N#C/C(=C\c1ccc(O)c(O)c1)C(=O)NCc1ccccc1 [AG-490 (Tyrphostin B42)] in the same way.
Reply: low range

Ask: # iterate: CCn1c(=O)c(-c2ccc(-c3cncs3)cc2Cl)cc2cnc(Nc3ccc(N4CCN(C)CC4)cc3)nc21
Reply: low range

Ask: Ok, now CN(C)CCOc1ccc(-c2nc(-c3ccncc3)c(-c3ccc4c(c3)CC/C4=N\O)[nH]2)cc1
Reply: low range

These data points were gathered from the supplement of paper PMC9694430.
